Assign Lysis to each entry below.
# test.description: Percentage platelet cell lysis at 33 uM measured by turbidimetry.
# Format: functional, Bos taurus
One number for each entry, in %.

Previously resolved entries follow.
> print(dat)
                                smiles.data  measured.property  readout.unit  measured.number
1        CCCCCCCCCCCCCCCCNC(=O)[C@@H]1CCCN1              Lysis             %                0
2  CCCCCCCCCCCCCCCCCC(=O)c1c(C)c(CCC(=O)O)n(Cc2ccc(OC)cc2)c1C              Lysis             %               12
3  CCCCCCCCCCCCCCCCCC(=O)c1c(C)c(CCC(=O)O)n(Cc2ccccc2)c1C              Lysis             %               19

Could you tell me Lysis for each of these molecules? They are listed below.
1. CCCCCCCCCCCCCCCCCC(=O)c1c(C)c(CCC(=O)O)n(CCCCCCN(C)C)c1C
2. CCCCCCCCCCCCCCCCCC(=O)c1c(C)c(CCC(=O)O)n(CCCCCC#N)c1C

[reply]
[0, 39]

Data origin, for the record: ChEMBL document CHEMBL1130397
